target: 5-hydroxytryptamine receptor 3A (Rattus norvegicus, UniProt P35563); assay: Agonist activity at rat 5HT3A expressed in Xenopus oocytes at -60 mV holding potential by electrophysiology method
Sequence (P35563 whole entry): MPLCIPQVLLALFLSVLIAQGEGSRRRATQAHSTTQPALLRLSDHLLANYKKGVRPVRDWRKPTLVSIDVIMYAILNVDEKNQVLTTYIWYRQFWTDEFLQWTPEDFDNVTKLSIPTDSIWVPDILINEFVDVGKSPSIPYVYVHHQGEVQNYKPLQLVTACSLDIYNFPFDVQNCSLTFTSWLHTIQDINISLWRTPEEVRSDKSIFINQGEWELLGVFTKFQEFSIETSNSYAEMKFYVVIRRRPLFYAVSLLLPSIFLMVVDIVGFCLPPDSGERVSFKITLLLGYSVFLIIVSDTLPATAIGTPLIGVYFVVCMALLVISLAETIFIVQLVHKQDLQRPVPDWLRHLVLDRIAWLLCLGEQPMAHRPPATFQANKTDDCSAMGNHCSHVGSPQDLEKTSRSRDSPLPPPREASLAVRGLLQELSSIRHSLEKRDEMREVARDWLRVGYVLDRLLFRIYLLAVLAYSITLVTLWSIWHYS
ENDPOINT NAME: pEC50
Expect pEC50 as a plain number equal to -log10 of the molar concentration.

Req: For the compound Clc1ccc2c(n1)OC13CCC1NCC23 (racemic) , report pEC50.
Resp: 4.54

* * *

molecular target: Neuronal acetylcholine receptor; alpha4/beta2 (Homo sapiens, UniProt P17787+P43681); test: Agonist activity at human alpha4beta2 nAChR by cell-based rubidium flux assay
Sequence (P17787 whole entry): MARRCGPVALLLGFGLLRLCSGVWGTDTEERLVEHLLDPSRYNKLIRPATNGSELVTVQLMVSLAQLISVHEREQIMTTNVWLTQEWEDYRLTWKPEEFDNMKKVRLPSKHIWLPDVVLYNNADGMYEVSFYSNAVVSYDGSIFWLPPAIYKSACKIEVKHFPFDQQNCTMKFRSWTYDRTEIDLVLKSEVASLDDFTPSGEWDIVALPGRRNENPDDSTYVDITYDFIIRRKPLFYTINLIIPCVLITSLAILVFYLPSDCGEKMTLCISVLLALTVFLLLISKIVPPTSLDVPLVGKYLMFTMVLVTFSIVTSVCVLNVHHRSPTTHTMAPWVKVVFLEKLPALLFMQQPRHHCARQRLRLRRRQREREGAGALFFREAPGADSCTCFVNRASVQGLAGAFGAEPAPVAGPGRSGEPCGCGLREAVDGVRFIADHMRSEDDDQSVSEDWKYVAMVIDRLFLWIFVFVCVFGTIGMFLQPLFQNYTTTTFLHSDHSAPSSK
Sequence (P43681 whole entry): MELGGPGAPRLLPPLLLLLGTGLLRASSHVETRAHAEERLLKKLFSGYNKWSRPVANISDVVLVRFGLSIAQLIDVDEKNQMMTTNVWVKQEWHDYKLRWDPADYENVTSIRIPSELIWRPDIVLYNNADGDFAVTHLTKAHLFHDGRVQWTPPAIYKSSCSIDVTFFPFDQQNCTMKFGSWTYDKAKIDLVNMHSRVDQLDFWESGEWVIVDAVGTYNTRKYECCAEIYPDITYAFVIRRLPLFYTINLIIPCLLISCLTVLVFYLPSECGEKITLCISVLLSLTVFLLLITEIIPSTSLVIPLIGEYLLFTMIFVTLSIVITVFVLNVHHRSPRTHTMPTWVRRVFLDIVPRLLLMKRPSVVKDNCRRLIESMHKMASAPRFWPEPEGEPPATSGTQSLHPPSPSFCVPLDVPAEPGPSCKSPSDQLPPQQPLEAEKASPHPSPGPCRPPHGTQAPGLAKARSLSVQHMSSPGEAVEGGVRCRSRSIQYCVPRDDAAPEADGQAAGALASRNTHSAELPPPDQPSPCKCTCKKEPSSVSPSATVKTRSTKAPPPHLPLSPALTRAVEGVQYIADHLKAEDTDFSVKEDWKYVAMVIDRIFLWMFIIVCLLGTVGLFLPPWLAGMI
Reported pEC50 values follow for various compounds
Expect pEC50 as a plain number equal to -log10 of the molar concentration.

Some compounds with known pEC50 results, for comparison:
1) CN1CCC[C@H]1c1ccccc1: 5.68
2) Clc1ccc2c(n1)O[C@]13CC[C@H]1NC[C@H]23: 6.70
3) Clc1ccc2c(n1)O[C@@]13CC[C@@H]1NC[C@@H]23 [PHANTASMIDINE]: 4.25

Now consider the entry below.
Req: For the compound Clc1ccc2c(n1)OC13CCC1NCC23 (racemic) , report pEC50.
Resp: 6.70

* * *

biological target: Neuronal acetylcholine receptor; alpha3/beta4 (Rattus norvegicus) (UniProt P04757+P12392); test: Agonist activity at rat alpha3beta4 nAChR by cell-based rubidium flux assay relative to 100 uM nicotine
ENDPOINT NAME: Emax (%)
// note: answer is a bare numeric in %

Some compounds with known Emax results, for comparison:
1) Clc1ccc2c(n1)OC13CCC1NCC23 (racemic): 91
2) Clc1ccc2c(n1)O[C@@]13CC[C@@H]1NC[C@@H]23 [PHANTASMIDINE]: 53
3) Clc1ccc2c(n1)O[C@]13CC[C@H]1NC[C@H]23: 91

Req: For the compound Clc1ccc(C2CC3CCC2N3)cn1 (racemic) [EPIBATIDINE] , report Emax.
Resp: 114

* * *

molecular target: Neuronal acetylcholine receptor; alpha4/beta2 (Homo sapiens, UniProt P17787+P43681); experiment: Agonist activity at human alpha4beta2 nAChR by cell-based rubidium flux assay relative to 100 uM nicotine
Reported Emax values follow for various compounds

Some compounds with known Emax results, for comparison:
1. Clc1ccc2c(n1)O[C@@]13CC[C@@H]1NC[C@@H]23: 110%
2. Clc1ccc2c(n1)O[C@]13CC[C@H]1NC[C@H]23: 45%
3. Clc1ccc(C2CC3CCC2N3)cn1 (racemic) [EPIBATIDINE]: 135%

Req: For the compound Clc1ccc2c(n1)OC13CCC1NCC23 (racemic) , report Emax.
Resp: 42%

* * *

Reported pEC50 values follow for various compounds
molecular target: Neuronal acetylcholine receptor; alpha4/beta2 (Rattus norvegicus, UniProt P09483+P12390); test: Agonist activity at rat alpha4beta2 expressed in Xenopus oocytes at -60 mV holding potential by electrophysiology method
Sequence (P09483 whole entry): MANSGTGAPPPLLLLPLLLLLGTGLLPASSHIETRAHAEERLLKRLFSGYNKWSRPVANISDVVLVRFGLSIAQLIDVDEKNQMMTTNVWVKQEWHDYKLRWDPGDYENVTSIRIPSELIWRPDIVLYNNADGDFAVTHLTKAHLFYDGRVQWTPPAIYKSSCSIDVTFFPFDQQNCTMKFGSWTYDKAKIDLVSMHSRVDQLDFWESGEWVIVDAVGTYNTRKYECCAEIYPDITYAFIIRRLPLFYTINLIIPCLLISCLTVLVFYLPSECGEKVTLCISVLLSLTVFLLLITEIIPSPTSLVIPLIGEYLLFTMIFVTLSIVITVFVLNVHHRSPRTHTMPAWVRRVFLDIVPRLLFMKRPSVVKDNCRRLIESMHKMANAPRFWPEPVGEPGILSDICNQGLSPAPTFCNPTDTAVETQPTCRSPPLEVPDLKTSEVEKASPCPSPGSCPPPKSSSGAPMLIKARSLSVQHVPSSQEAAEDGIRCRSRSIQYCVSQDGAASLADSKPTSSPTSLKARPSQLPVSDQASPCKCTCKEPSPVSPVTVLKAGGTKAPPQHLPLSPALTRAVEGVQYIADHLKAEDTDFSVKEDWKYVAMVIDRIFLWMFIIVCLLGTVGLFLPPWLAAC
Sequence (P12390 whole entry): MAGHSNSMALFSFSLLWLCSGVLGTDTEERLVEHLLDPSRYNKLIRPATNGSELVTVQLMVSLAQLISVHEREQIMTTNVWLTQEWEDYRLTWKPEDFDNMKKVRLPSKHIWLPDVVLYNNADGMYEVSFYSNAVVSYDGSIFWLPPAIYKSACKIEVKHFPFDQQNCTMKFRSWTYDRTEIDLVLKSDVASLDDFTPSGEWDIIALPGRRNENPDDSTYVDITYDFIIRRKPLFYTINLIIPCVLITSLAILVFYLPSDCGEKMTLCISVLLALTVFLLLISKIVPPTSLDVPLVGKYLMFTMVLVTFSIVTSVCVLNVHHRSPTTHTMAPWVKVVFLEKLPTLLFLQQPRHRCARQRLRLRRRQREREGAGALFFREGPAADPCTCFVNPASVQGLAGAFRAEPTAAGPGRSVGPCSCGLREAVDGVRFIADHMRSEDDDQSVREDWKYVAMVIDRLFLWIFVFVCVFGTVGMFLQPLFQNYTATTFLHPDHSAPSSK
Expect pEC50 as a plain number equal to -log10 of the molar concentration.

1. Clc1ccc2c(n1)OC13CCC1NCC23 (racemic): 8.51

Req: For the compound `Clc1ccc2c(n1)O[C@@]13CC[C@@H]1NC[C@@H]23` , report pEC50.
Resp: 7.35

Req: For the compound `Clc1ccc2c(n1)O[C@]13CC[C@H]1NC[C@H]23` , report pEC50.
Resp: 8.82
